target_under_test: T1, human ST2L extracellular domain with C-terminal His6 tag (human, UniProt Q01638 19-328)
T1 construct: also called huST2L-ECD; ST2L-ECD
T1 sequence: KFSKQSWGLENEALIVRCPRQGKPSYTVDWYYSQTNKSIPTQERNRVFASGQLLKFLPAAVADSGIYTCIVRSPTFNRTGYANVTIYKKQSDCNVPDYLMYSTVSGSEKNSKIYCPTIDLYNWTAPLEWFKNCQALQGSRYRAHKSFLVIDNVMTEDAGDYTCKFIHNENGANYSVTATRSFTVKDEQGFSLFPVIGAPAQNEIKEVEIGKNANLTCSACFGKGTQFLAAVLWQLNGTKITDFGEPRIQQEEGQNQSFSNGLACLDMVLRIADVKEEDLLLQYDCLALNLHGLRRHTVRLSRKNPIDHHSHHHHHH
protocol: RLB ELISA: biotinylated IL-33 on coated huST2L-ECD, antibody titrated
readout_type: IC50 (µg/mL)
Numbers only, in µg/mL.

binder: STLM226 (antibody, V domains shown, VH STLH201 + VL STLL280) VH: EVQLVQSGAEVKKPGATVKISCKVSAFNIKDDYMHWVQQAPGKGLEWMGRIDPAIGNTEYAEKFQGRVTITADTSTDTAYMELSSLRSEDTAVYYCATGDFYAMAYWGQGTLVTVSS VL: DIQMTQSPSSLSASVGDRVTITCITNTDIDDVIHWYQQKPGKAPKLLIYEGNTLRPGVPSRFSGSGSGTDFTLTISSLQPEDFATYYCLQSDNLLTFGQGTKLEIK
IC50 [µg/mL]: 0.26
//
binder: STLM107 (antibody, V domains shown, frameworks VH3-23 / Vk-L6) VH: EVQLLESGGGLVQPGGSLRLSCAASGFTFSDYAMFWVRQAPGKGLEWVSAIEGEGGETNYADSVKGRFTISRDNSKNTLYLQMNSLRAEDTAVYYCARDPWSTEGSFFVLDYWGQGTLVTVSS VL: EIVLTQSPATLSLSPGERATLSCRASQSVDDDLAWYQQKPGQAPRLLIYDASNRATGIPARFSGSGSGTDFTLTISSLEPEDFAVYYCQQYIGAPITFGQGTKVEIK
IC50 [µg/mL]: 0.44

Sample STLM210 (antibody, V domains shown, frameworks VH3-23 / Vk-L6) VH: EVQLLESGGGLVQPGGSLRLSCAASGFTFSDDAMIWVRQAPGKGLEWVSYIGGNGGTTYYADSVKGRFTISRDNSKNTLYLQMNSLRAEDTAVYYCARDPWSTEGSFFVLDYWGQGTLVTVSS VL: EIVLTQSPATLSLSPGERATLSCRASQSVDDDLAWYQQKPGQAPRLLIYDASNRATGIPARFSGSGSGTDFTLTISSLEPEDFAVYYCQQYNDAITFGQGTKVEIK ; IC50 observed: 0.3
